Biological target: H3 hemagglutinin (A/Brisbane/10/2007) (influenza A virus A/Brisbane/10/2007 (H3N2))
Assay: ELISA on coated HA, relative Kd (4-parameter fit)
reported endpoint: Kd (pM)
Lab book: enter the figure in pM, no units written.

# input Item under review: Ab 037 (antibody, V domains shown) VH: EVQLLESGGGLVKPGQSLKLSCAASGFTFTSYAMHWVRQPPGKGLEWVAVVSYDGNYKYYADSVQGRFTISRDNSKNTLYLQMNSLRAEDTAVYYCAKDSRLRSLLYFEWLSQGYFNPWGQGTTLTVSS VL: DIQMTQSPSSLSASVGDRVTITCRSSQSITFNYKNYLGWYQQKPGKAPKLLIYWGSYLESGVPSRFSGSGSGTDFTLTISSLQPEDFATYYCQQHYRTPPSFGQGTKVEIK . Reported Kd?
# output 87
